All values here come from paper PMC11187542.

TESTED SYSTEM: SMYD3 (apo, native) (Homo sapiens)
Construct: Full length recombinant SMYD3 was produced as previously reported; made in house; host or cells: E. coli BL21(DE3), in some cases Rosetta 2
Sequence (Q9H7B4 1-428): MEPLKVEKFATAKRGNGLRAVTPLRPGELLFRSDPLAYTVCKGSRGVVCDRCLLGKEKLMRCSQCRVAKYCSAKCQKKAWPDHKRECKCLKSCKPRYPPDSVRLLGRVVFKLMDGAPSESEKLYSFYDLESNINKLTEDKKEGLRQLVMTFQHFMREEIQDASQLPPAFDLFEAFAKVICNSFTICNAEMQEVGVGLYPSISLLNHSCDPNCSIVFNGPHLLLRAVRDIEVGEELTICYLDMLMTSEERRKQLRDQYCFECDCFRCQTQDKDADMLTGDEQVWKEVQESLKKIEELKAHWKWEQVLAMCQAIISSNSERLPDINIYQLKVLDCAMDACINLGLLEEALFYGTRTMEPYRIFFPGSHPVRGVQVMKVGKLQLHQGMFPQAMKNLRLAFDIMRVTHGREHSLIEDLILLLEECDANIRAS
MEASUREMENT NOTES: GCI biosensor kinetic screening, apo SMYD3 surface
Format: binding
MEASUREMENT CONDITIONS: LE = −RT ln(KD)/n

[
  {
    "MOLECULE": "NC(=O)c1cccc(O)c1",
    "LE (ligand efficiency)": "0.70 (kcal^-1 mol^-1)/HA"
  },
  {
    "MOLECULE": "COc1ccccc1C1OC(=O)CC1C(=O)O (stereo not drawn)",
    "LE (ligand efficiency)": "0.35 (kcal^-1 mol^-1)/HA"
  },
  {
    "MOLECULE": "Nc1ccc(S(N)(=O)=O)cc1",
    "LE (ligand efficiency)": "0.66 (kcal^-1 mol^-1)/HA"
  }
]
